Can you tell me Activity for the items I'm about to list?
assay: Compound was evaluated for broad range of antagonistic activity against multi drug resistance-related protein (MRP) value expressed as IC20; format: functional; set-up: unit not given here
Numbers only.

Some solved cases for reference:
O=C(Nc1c2c(nc3ccccc13)N(Cc1ccccc1)CC2)c1c(F)cccc1C(F)(F)F | 0.9
Fc1ccc(CNc2c3c(nc4ccccc24)N(Cc2ccccc2)CC3)cc1 | 0.7
Nc1c2c(nc3ccccc13)N(Cc1ccccc1)CC2 | 1
O=C(Nc1c2c(nc3ccccc13)N(Cc1ccccc1)CC2)c1ccc(F)c(C(F)(F)F)c1 | 0.9
CCOC(=O)CNc1c2c(nc3ccccc13)N(Cc1ccccc1)CC2 | 0.9

Okay, here is my list. What is Activity for each of these?
1. O=C(Cc1ccccc1)Nc1c2c(nc3ccccc13)N(Cc1ccccc1)CC2
2. COc1cc(CNc2c3c(nc4ccccc24)N(Cc2ccccc2)CC3)cc(OC)c1

1: 0.7; 2: 0.9

----------
target: ATP-dependent translocase ABCB1 (Homo sapiens); assay: Pgp antagonism was determined percentage of NCI/ADR cells surviving in the absence of vinblastine/percentage of NCI/ADR cells surviving in the presence of vinblastine; type: functional, cell-based
Can you tell me Ratio for the items I'm about to list?
One number for each entry.

Some solved cases for reference:
CN1CCc2c1nc1ccccc1c2NC(=O)CNCCc1ccc(O)cc1 | 1.7
Nc1c2c(nc3cc(Br)ccc13)N(Cc1ccccc1)CC2 | 1.7
O=C(Nc1c2c(nc3ccccc13)N(Cc1cccc(Cl)c1)CC2)C12CC3CC(CC(C3)C1)C2 | 1.2
CN1CCc2c1nc1cc(Br)ccc1c2N | 1.3
Nc1c2c(nc3cc(Br)ccc13)N(C1CCCCC1)CC2 | 1
CC(C)(C)c1cc(CCC(=O)Nc2c3c(nc4ccccc24)N(Cc2ccccc2)CC3)cc(C(C)(C)C)c1O | 13.2
CN1CCc2c1nc1ccccc1c2/N=C(/c1ccccc1)N1CCCCC1 | 2.4
O=C(CN1CCCCC1)Nc1c2c(nc3ccccc13)N(Cc1ccccc1)CC2 | 18
CN1CCc2c1nc1ccccc1c2NC(=O)CCc1cc(C(C)(C)C)c(O)c(C(C)(C)C)c1 | 1
CC(C)NCC(=O)Nc1c2c(nc3ccccc13)N(C)CC2 | 1.8

Okay, here is my list. What is Ratio for each of these?
1. CCCCN1CCc2c1nc1cc(Br)ccc1c2N
2. Nc1c2c(nc3ccccc13)N(C1CCCCC1)CC2
3. CN1CCN(CC(=O)Nc2c3c(nc4ccccc24)N(Cc2ccccc2)CC3)CC1
4. CCN(CC)CC(=O)Nc1c2c(nc3ccccc13)N(Cc1ccccc1)CC2
5. CCCCN(CCCC)CC(=O)Nc1c2c(nc3ccccc13)N(C)CC2
6. Cc1cc(C)c2c(N)c3c(nc2c1)N(Cc1ccccc1)CC3
7. CN1CCc2c1nc1ccccc1c2NC(=O)CN1CCCCC1

[1.1, 0.8, 7.5, 15, 4.2, 3.6, 4.1]

----------
Can you tell me Activity for the items I'm about to list?
target: ATP-dependent translocase ABCB1 (Homo sapiens, UniProt P08183); experiment: Compound was evaluated for broad range of antagonistic activity against P-glycoprotein (Pgp) value expressed as IC20; format: functional
Sequence (P08183 whole entry): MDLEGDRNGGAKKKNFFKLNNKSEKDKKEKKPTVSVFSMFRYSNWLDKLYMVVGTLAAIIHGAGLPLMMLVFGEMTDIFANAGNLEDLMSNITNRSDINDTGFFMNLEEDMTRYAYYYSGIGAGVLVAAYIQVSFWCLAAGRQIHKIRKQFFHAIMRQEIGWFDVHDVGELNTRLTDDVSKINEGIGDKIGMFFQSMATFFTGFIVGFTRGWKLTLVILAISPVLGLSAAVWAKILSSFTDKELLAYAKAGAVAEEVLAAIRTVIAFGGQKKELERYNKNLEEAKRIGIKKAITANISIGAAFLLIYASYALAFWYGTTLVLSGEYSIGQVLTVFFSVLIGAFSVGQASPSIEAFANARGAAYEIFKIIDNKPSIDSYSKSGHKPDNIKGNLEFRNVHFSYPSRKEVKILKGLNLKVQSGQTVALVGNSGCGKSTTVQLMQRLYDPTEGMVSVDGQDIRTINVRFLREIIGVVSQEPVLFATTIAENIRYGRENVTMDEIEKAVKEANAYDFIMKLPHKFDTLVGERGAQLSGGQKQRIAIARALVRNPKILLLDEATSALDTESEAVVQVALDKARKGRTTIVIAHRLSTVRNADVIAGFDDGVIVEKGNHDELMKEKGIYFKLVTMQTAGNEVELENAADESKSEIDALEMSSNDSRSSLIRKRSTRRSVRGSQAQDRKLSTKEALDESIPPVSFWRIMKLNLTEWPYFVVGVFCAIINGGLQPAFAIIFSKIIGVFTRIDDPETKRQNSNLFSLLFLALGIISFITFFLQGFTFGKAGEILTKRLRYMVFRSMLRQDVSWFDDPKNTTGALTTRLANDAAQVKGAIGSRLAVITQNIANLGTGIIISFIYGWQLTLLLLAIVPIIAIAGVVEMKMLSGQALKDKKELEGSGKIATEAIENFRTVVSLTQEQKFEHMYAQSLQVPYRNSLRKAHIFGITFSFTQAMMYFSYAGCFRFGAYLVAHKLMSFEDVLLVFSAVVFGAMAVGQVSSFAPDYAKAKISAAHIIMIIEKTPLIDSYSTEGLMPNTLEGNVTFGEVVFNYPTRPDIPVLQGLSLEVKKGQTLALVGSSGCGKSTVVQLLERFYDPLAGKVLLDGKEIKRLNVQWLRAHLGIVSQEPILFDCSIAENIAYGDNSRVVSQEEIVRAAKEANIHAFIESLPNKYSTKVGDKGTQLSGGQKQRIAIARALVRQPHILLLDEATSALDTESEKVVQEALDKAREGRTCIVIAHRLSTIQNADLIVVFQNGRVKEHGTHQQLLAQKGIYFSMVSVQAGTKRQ
Give bare numbers.

Some solved cases for reference:
COc1cc(CNc2c3c(nc4ccccc24)N(Cc2ccccc2)CC3)cc(OC)c1 | 1.4
Nc1c2c(nc3ccccc13)N(Cc1ccccc1)CC2 | 1
Fc1cccc(CNc2c3c(nc4ccccc24)N(Cc2ccccc2)CC3)c1 | 1.2
O=C(Nc1c2c(nc3ccccc13)N(Cc1ccccc1)CC2)c1ccc(F)c(C(F)(F)F)c1 | 4.9

Okay, here is my list. What is Activity for each of these?
1. Fc1ccc(CNc2c3c(nc4ccccc24)N(Cc2ccccc2)CC3)cc1
2. O=C(Cc1ccccc1)Nc1c2c(nc3ccccc13)N(Cc1ccccc1)CC2
3. CCOC(=O)CNc1c2c(nc3ccccc13)N(Cc1ccccc1)CC2
4. O=C(Nc1c2c(nc3ccccc13)N(Cc1ccccc1)CC2)c1c(F)ccc(F)c1F

1.3
10.7
0.9
3.1

Okay, here is my list. What is Activity for each of these?
1. O=C(Nc1c2c(nc3ccccc13)N(Cc1ccccc1)CC2)c1c(F)cccc1C(F)(F)F
2. O=C(CN1CCCCC1)Nc1c2c(nc3ccccc13)N(Cc1ccccc1)CC2

1: 2.5; 2: 9

Reference for the values: ChEMBL document CHEMBL1149323
